- protocol text: Cardiotoxicity in human iPSC derived cardiomyocytes assessed as reduction in beating rate at 10 nM
- Format: toxicity, cell-based, Cardiac muscle cell
compounds and their reported inhibition at 0.01 µM

Here are 2 compounds together with their reported answers.
CCCCCC[C@@H]1CCc2cc([C@H]3CC[C@](N)(COP(=O)(O)O)C3)ccc2C1 : 32%
COc1cccc(SC[C@@H]2CCc3cc([C@H]4CC[C@](N)(COP(=O)(O)O)C4)ccc3C2)c1 : 44%

For "N[C@]1(COP(=O)(O)O)CC[C@H](c2ccc3c(c2)CC[C@@H](COCc2ccccc2)C3)C1" , what is its reported inhibition at 0.01 µM?
52%
